assay: Cytotoxicity against human HepG2 cells after 48 hrs by Alamar Blue assay
Format: cell-based
recordedEndpoint: CC50 at 48 h

[[record]]
querysmiles = "CCn1cc/c(=N\\c2cccc(CCc3ccc(OC(F)(F)F)cc3)c2)c2ccc(Cl)cc21"
testvalue = "3.94 µM"


Tell me its CC50 at 48 h given CCn1cc/c(=N\c2ccc(Oc3ccc(C(F)(F)F)cc3)cc2)c2ccc(Cl)cc21 as the entry. 3.2 µM

Tell me its CC50 at 48 h given Cn1cc/c(=N\c2ccc(Oc3ccc(C(F)(F)F)cc3)cc2)c2ccc(Cl)cc21 as the entry. 3.08 µM

Tell me its CC50 at 48 h given CCn1cc/c(=N\c2ccc(Cc3ccccc3)cc2)c2ccc(Cl)cc21 as the entry. 2.89 µM
